molecular target: GABA-A receptor; anion channel; test: Binding affinity for Diazepam sensitive (DS) isoform of the benzodiazepine (Bz) binding site on GABAA receptors; type: protein-complex assay
As shown below, each of these compounds has a reported log10 Ki value.
QUANTITY_KIND: log10 Ki (log10 of the value in nM)

1) CC(C)(C)OC(=O)c1ncn2c1C1CCCN1C(=O)c1cc(Cl)ccc1-2 (stereo unspecified) ... 1.81
2) CCOC(=O)c1ncn2c1C1CCN1C(=O)c1c(Cl)cccc1-2 (stereo unspecified) ... -0.70
3) Cc1noc(-c2ncn3c2CN(Cc2ccccc2)C(=O)c2cc(Cl)ccc2-3)n1 ... 1.95
4) CC(C)(C)OC(=O)c1ncn2c1C1CCN1C(=O)c1cc(F)ccc1-2 (stereo unspecified) ... 0.26
5) Cc1noc(-c2ncn3c2CN(Cc2ccccc2)C(=O)c2ccccc2-3)n1 ... 2.96
6) O=C(OCC1CC1)c1ncn2c1C1CCCN1C(=O)c1cc(Cl)ccc1-2 (stereo unspecified) ... 2.58
7) CC(C)(C)OC(=O)c1ncn2c1C1CCN1C(=O)c1c(Cl)cccc1-2 (stereo unspecified) ... 0.04
8) CCOC(=O)c1ncn2c1C1CCCN1C(=O)c1c(Cl)cccc1-2 (stereo unspecified) ... -0.70
9) Cc1nnc(-c2ncn3c2CN(Cc2ccccc2)C(=O)c2ccccc2-3)o1 ... 3.08

----------
Let's look at some compounds and their measured Ratio.
target: GABA-A receptor; anion channel (Rattus norvegicus) (UniProt O09028+P15431+P18506+P18508+P19969+P20236+P23574+P23576+P28471+P28473+P30191+P62813+P63079+P63138+Q91ZM7+Q9ES14); experiment: Ratio of binding affinity against DI Bz receptor to that of DS Bz receptor; type: protein-complex assay
QUANTITY_KIND: Ratio

1. CCc1cccc2c1C(=O)N1CCCC1c1c(C(=O)OC(C)(C)C)ncn1-2 (stereo not given) ... 164
2. CC(C)(C)OC(=O)c1ncn2c1C1CCCN1C(=O)c1cc(Cl)ccc1-2 (stereo not given) ... 0.4
3. CC(C)(C)OC(=O)c1ncn2c1C1CCN1C(=O)c1c(Cl)cccc1-2 (stereo not given) ... 14
4. CC(C)(C)OC(=O)c1ncn2c1C1CCCN1C(=O)c1c(Br)cccc1-2 (stereo not given) ... 20
5. CN1Cc2c(C(=O)OC(C)(C)C)ncn2-c2ccc(Cl)cc2C1=O ... 0.4
6. CC(C)OC(=O)c1ncn2c1CN(C)C(=O)c1cc(Cl)ccc1-2 ... 0.8
7. CCOC(=O)c1ncn2c1C1CCCN1C(=O)c1c(Cl)cccc1-2 (stereo not given) ... 344
8. CC(C)(C)OC(=O)c1ncn2c1C1CCCN1C(=O)c1c-2ccc(F)c1Cl (stereo not given) ... 24
9. Cc1nnc2n1-c1ccc(Cl)cc1C(c1ccccc1Cl)=NC2 ... 2610
10. CCC(CC)OC(=O)c1ncn2c1CN(C)C(=O)c1cc(Cl)ccc1-2 ... 4.6

----------
biological target: GABA-A receptor; anion channel (Rattus norvegicus) (UniProt O09028+P15431+P18506+P18508+P19969+P20236+P23574+P23576+P28471+P28473+P30191+P62813+P63079+P63138+Q91ZM7+Q9ES14); test: Ratio of binding affinity against DI Bz receptor to that of DS Bz receptor; type: protein-complex assay
Label Met when Ratio is strictly below 1; at or above that, label Not met.

1) CCCOC(=O)c1ncn2c1CN(C)C(=O)c1cc(Cl)ccc1-2 ... Not met
2) CN1Cc2c(C(=O)OCC(C)(C)C)ncn2-c2ccc(Cl)cc2C1=O ... Met
3) Cc1noc(-c2ncn3c2CN(Cc2ccccc2)C(=O)c2c(Cl)cccc2-3)n1 ... Not met
4) COC(=O)c1ncn2c1CN(C)C(=O)c1cc(F)ccc1-2 [FLUMAZENIL METHYLESTER] ... Not met
5) CCOC(=O)c1ncn2c1CN(Cc1ccccc1)C(=O)c1cc(Cl)ccc1-2 ... Met
6) CN1Cc2c(C(=O)OC(C)(C)C)ncn2-c2ccsc2C1=O ... Not met
7) CCOC(=O)c1ncn2c1CN(C)C(=O)c1ccccc1-2 ... Not met
8) CN1Cc2c(C(=O)OCC3CC3)ncn2-c2ccc(Cl)cc2C1=O ... Not met
9) CCOC(=O)c1ncn2c1CN(Cc1ccccc1)C(=O)c1ccccc1-2 ... Not met
10) CCOC(=O)c1ncn2c1C1CCCN1C(=O)c1cc(Cl)ccc1-2 (stereo unspecified) ... Met
11) CN1Cc2c(C(=O)OC(C)(C)C)ncn2-c2ccccc2C1=O ... Not met
